System: dopamine uptake by synaptosomes from rat brain
Assay: blockage of dopamine uptake by synaptosomes from rat brain
Type: biochemical
Details: Table 1, dopamine 0.2 μM
This listing pairs compounds with measured Concentration in mcg./ml. that blocks 50% of amine uptake, Dopamine.
Endpoint Name: Concentration in mcg./ml. that blocks 50% of amine uptake, Dopamine

[
  {
    "Compound": "CN(C)CCC(Oc1cccc2ccccc12)c1ccccc1 (stereo not shown)",
    "Tested System": "dopamine uptake by synaptosomes from rat brain",
    "Measured": "2.5 µg/mL"
  },
  {
    "Compound": "CN(C)CCC(Oc1ccc(C(F)(F)F)cc1)c1ccccc1 (stereo not shown)",
    "Tested System": "dopamine uptake by synaptosomes from rat brain",
    "Measured": "> 100 µg/mL"
  },
  {
    "Compound": "Cc1cc(F)ccc1OC(CCN(C)C)c1ccccc1 (stereo not shown)",
    "Tested System": "dopamine uptake by synaptosomes from rat brain",
    "Measured": "40 µg/mL"
  },
  {
    "Compound": "COc1cccc(OC(CCN(C)C)c2ccccc2)c1 (stereo not shown)",
    "Tested System": "dopamine uptake by synaptosomes from rat brain",
    "Measured": ".5 µg/mL"
  }
]

* * *

Test system: serotonin uptake by synaptosomes from rat brain
Experiment: blockage of serotonin uptake by synaptosomes from rat brain
Type: biochemical
Details: Table 1, serotonin 0.1 μM
Endpoint Name: Concentration in mcg./ml. that blocks 50% of amine uptake, Serotonin

[
  {
    "Compound": "Cc1cccc(OC(CCN(C)C)c2ccccc2)c1 (stereo not drawn)",
    "Measured": ".7 µg/mL"
  },
  {
    "Compound": "CN(C)CCC(Oc1cccc(C(F)(F)F)c1)c1ccccc1 (stereo not drawn)",
    "Measured": ".18 µg/mL"
  },
  {
    "Compound": "CN(C)CCC(Oc1cccc2ccccc12)c1ccccc1 (stereo not drawn)",
    "Measured": ".03 µg/mL"
  }
]
